conditions: in ethanol, 298.15 K
measured property: solubility (mole fraction)

| smiles string | reported value |
| --- | --- |
| CO[C@@]1(NC(=O)CSCC#N)C(=O)N2C(C(=O)O)=C(CSc3nnnn3C)CS[C@@H]21 | 0.00049 |

----------
details: in methanol, 293.15 K

| smiles string | solubility (mole fraction) |
| --- | --- |
| CO[C@@]1(NC(=O)CSCC#N)C(=O)N2C(C(=O)O)=C(CSc3nnnn3C)CS[C@@H]21 | 0.00273 |

----------
settings: in ethanol, 278.15 K
measured property: solubility (mole fraction)

| smiles string | measured property | reported value |
| --- | --- | --- |
| CO[C@@]1(NC(=O)CSCC#N)C(=O)N2C(C(=O)O)=C(CSc3nnnn3C)CS[C@@H]21 | solubility (mole fraction) | 0.000266 |

----------
settings: in methanol, 298.15 K

| smiles string | solubility (mole fraction) |
| --- | --- |
| CO[C@@]1(NC(=O)CSCC#N)C(=O)N2C(C(=O)O)=C(CSc3nnnn3C)CS[C@@H]21 | 0.00364 |

----------
conditions: in ethanol, 293.15 K

| smiles string | solubility (mole fraction) |
| --- | --- |
| CO[C@@]1(NC(=O)CSCC#N)C(=O)N2C(C(=O)O)=C(CSc3nnnn3C)CS[C@@H]21 | 0.000435 |

src = BigSolDB 2.1
